Every entry's value here was drawn from the supplement of paper PMC10266784.

B1: library; numbered along this chain (parent)
chain: MAAAAAAAAEQQSSNGPVKKSMREKAVERRSVNKEHNSNFKAGYIPIDEDRLHKTGLRGRKGNLAICVIILLFILAVINLIITLVIWAVIRIGPNGCDSMEFHESGLLRFKQVSDMGVIHPLYKSTVGGRRNENLVITGNNQPIVFQQGTTKLSVENNKTSITSDIGMQFFDPRTQNILFSTDYETHEFHLPSGVKSLNVQKASTERITSNATSDLNIKVDGRAIVRGNEGVFIMGKTIEFHMGGNMELKAENSIILNGSVMVSTTRLPSSSSGDQLGSGDWVRYKLCMCADGTLFKVQVTSQNMGCQISDNPCGNTH

- Variants of: B1
- assay.explanation: SGCB cell-surface expression functional score (HA stain, bin4 vs bin1, normalised to synonymous) (log10 ratio); higher = more cell-surface SGCB (functional)
measurement.kind: SGCB cell-surface expression functional score (log10)

INSERT INTO measurements (mutation_spec, numeric_value) VALUES
  ('V118R', -0.19),
  ('A203W', -0.3),
  ('I74A', 0),
  ('F170T', -0.01);
